Test system: gephE
Experiment: µSPOT peptide microarray binding assay with recombinant gephE
Details: µSPOT full positional scan of GlyRβ 15-mer DLRSNDFSIVGSLPR; intensity normalised to wild-type sequence (= 1)
endpoint_label: gephE Binding Intensity [norm.] (norm.)

Below, each entry is followed by its recorded gephE Binding Intensity [norm.] result.
| sequence_record | endpoint_label | quantitative_readout |
| --- | --- | --- |
| DLRSNDFSIVGSLPF [GlyRβ_Full_Positional_Scan_287] | gephE Binding Intensity [norm.] | 1.01 |
| DLRSNDFSIVGSLPI [GlyRβ_Full_Positional_Scan_283] | gephE Binding Intensity [norm.] | 0.98 |
| DLRSNDFSIVGQLPR [GlyRβ_Full_Positional_Scan_240] | gephE Binding Intensity [norm.] | 0.84 |
| DLRSNDFSIVGSLPE [GlyRβ_Full_Positional_Scan_291] | gephE Binding Intensity [norm.] | 0.82 |

A = DLRSNDFSIVGSLGR [GlyRβ_Full_Positional_Scan_262]
B = DLRSNDFSIVGSLER [GlyRβ_Full_Positional_Scan_271]
# min-compare on gephE Binding Intensity [norm.] between A and B // return label of chosen record
B

a = DLRSNDFSIVGSLPQ [GlyRβ_Full_Positional_Scan_300]
b = DLRSNDFSIVGILPR [GlyRβ_Full_Positional_Scan_223]
# min-compare on gephE Binding Intensity [norm.] between a and b // return label of chosen record
b

====

System: FL-geph
Assay: µSPOT peptide microarray binding assay with full-length geph
Settings: µSPOT peptide microarray, GlyRβ full positional scan, intensity normalised to wild-type sequence DLRSNDFSIVGSLPR (=1)
endpoint_label: Fl-geph Binding Intensity [norm.] (norm.)

| sequence_record | subject_of_test | quantitative_readout |
| --- | --- | --- |
| DLRSNDVSIVGSLPR [GlyRβ_Full_Positional_Scan_126, GlyR β 414-428 variant F420V] | FL-geph | 0.76 |

P = DLRSNDFSIFGSLPR [GlyRβ_Full_Positional_Scan_187, GlyR β 414-428 variant V423F]
Q = DLCSNDFSIVGSLPR [GlyRβ_Full_Positional_Scan_057]
Among P and Q , which shows a numerically higher Fl-geph Binding Intensity [norm.] result? // return label of chosen record
Q

I = DLRSNDFSIPGSLPR [GlyRβ_Full_Positional_Scan_185, GlyR β 414-428 variant V423P]
II = DLWSNDFSIVGSLPR [GlyRβ_Full_Positional_Scan_048]
# min-compare on Fl-geph Binding Intensity [norm.] between I and II // return label of chosen record
I

====

// pKi lookup, one value per entry
Biological target: gephE (Rattus norvegicus, UniProt Q03555)
Construct: gephE (residues 318-736) was generated; made in house
Sequence (Q03555 350-768): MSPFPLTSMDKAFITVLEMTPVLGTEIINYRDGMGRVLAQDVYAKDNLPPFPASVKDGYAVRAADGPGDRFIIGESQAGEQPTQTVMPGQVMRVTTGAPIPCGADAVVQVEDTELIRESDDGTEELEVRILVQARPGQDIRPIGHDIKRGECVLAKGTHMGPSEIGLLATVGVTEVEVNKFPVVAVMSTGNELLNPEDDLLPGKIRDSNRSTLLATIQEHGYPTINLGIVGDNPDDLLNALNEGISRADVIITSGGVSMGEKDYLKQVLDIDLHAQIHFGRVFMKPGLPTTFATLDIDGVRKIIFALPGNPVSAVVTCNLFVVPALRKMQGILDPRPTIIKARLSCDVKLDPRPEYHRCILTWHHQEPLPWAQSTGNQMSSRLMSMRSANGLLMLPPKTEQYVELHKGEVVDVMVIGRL
Assay: TRIC displacement 12-point dose response against gephE-NN1D-Alexa647 complex
Assay type: binding
Where a SMILES comes first, the peptide text is derived from it.
Hey, just a heads up that pKi is the negative log base 10 of the concentration in molar.

| molecule | quantitative_readout |
| --- | --- |
| CC[C@H](C)[C@H](NC(=O)[C@H](CO)NC(=O)[C@H](Cc1ccc(O)cc1)NC(=O)[C@H](CC(=O)O)NC(=O)[C@H](CC(N)=O)NC(=O)[C@H](CO)NC(=O)[C@H](CCCNC(=N)N)NC(=O)[C@H](CC(C)C)NC(=O)[C@@H](N)CC(=O)O)C(=O)N[C@H](C(=O)NCC(=O)N[C@@H](CO)C(=O)N[C@@H](CC(C)C)C(=O)N1CCC[C@H]1C(=O)N[C@@H](CCCNC(=N)N)C(N)=O)C(C)C [GlyRβ_Full_Positional_Scan_129] (H-DLRSNDYSIVGSLPR-NH2) | 3.73 |

Now for the molecule whose pKi we want.
Tell me its pKi given CC(C)C[C@H](NC(=O)[C@H](CO)NC(=O)[C@H](Cc1ccccc1)NC(=O)[C@H](CC(=O)O)NC(=O)[C@H](CC(N)=O)NC(=O)[C@H](CO)NC(=O)[C@H](CCCNC(=N)N)NC(=O)[C@H](CC(C)C)NC(=O)[C@@H](N)CC(=O)O)C(=O)N[C@H](C(=O)NCC(=O)N[C@@H](CO)C(=O)N[C@@H](CC(C)C)C(=O)N1CCC[C@H]1C(=O)N[C@@H](CCCNC(=N)N)C(N)=O)C(C)C [GlyRβ_Full_Positional_Scan_164] (H-DLRSNDFSLVGSLPR-NH2) as the entry.
4.65
